System: RPMI-8226 leukemia
Assay: NCI tumour cell line growth inhibition, 48 h
OUTCOME_MEASURE: TGI

Lookup: Any idea what its TGI is? The compound is Cn1c(=O)c2[nH]cnc2n(C)c1=O
Found: > 100 µM

Lookup: Any idea what its TGI is? The compound is C[P+](C)(CC(F)(F)F)c1ccccc1
Found: > 100 µM

Lookup: Any idea what its TGI is? The compound is Cc1cc(=O)[nH]c(S(=O)(=O)NC(=S)Nc2ccc(Br)cc2)n1
Found: > 100 µM

Lookup: Any idea what its TGI is? The compound is C1CN(C23OC4(N5CCOCC5)C5C6CC(C7C6C4C72)C53)CCO1 (stereo not given)
Found: > 100 µM

Lookup: Any idea what its TGI is? The compound is N#CCc1nc2c(s1)C(=O)c1ccccc1C2=O
Found: 46.6 µM

Lookup: Any idea what its TGI is? The compound is CCOc1ccc(N2C(N)=NC(N)=NC2(C)C)cc1
Found: > 100 µM

Lookup: Any idea what its TGI is? The compound is CCOC(=O)c1cc2cc([N+](=O)[O-])ccc2oc1=O
Found: > 100 µM

###

Test system: SK-OV-3 ovarian
Experiment: NCI tumour cell line growth inhibition, 48 h
// reported TGI per item

Guide cases for TGI, answers given:
>>> assay_result("Cn1cc(/C=C2\\C(=O)Nc3cccnc32)c2ccccc21")
"> 25 µM"
>>> assay_result("COc1cc(/C=C2\\N=C(c3ccccc3)N(c3ccc(C(=O)c4ccccc4)cc3N3C(=O)/C(=C/c4cc(OC)c(OC)c(OC)c4)N=C3c3ccccc3)C2=O)cc(OC)c1OC")
"55.4 µM"

Lookup: Quick check: TGI on SK-OV-3 ovarian, item COc1cc(C(N)=O)c(OC)c(OC)c1OC ?
Found: > 100 µM

Lookup: Quick check: TGI on SK-OV-3 ovarian, item COc1ccc(/C(Cl)=C(\C=O)c2ccc(Cl)cc2)cc1 ?
Found: > 100 µM

Lookup: Quick check: TGI on SK-OV-3 ovarian, item COC(=O)C[C@H]1[C@]2(C)C3=C(C)[C@H](c4ccoc4)CC3O[C@@H]2[C@@H]2OC(=O)[C@]3(C)CCC(=O)[C@@]1(C)[C@@H]23 (stereo not given in full) ?
Found: > 100 µM

###

// reported GI50 per item
System: SF-539 CNS
Assay: NCI tumour cell line growth inhibition, 48 h

Guide cases for GI50, answers given:
>>> assay_result("CC1=CC(=O)c2[nH]c3ccccc3c2C1=O")
"4.28 µM"
>>> assay_result("CCOc1ccc(N2C(N)=NC(N)=NC2(C)C)cc1")
"28.6 µM"
>>> assay_result("CCn1cc(C2NC(=O)c3cc(F)ccc3N2)c2cccc(Cl)c21 (stereo unspecified)")
"0.177 µM"
>>> assay_result("NC(=O)c1ccc(-c2c3ccccc3cc3c2ccc2ccccc23)cc1")
"3.59 µM"
>>> assay_result("COCCn1cc(-c2csc(-c3c[nH]c4ccc(F)cc34)n2)c2cccnc21")
"8.86 µM"

Would you kindly look at the next entry?
Lookup: Any idea what its GI50 is? The compound is Cc1ccc(Nc2ccnc(Nc3cccc(C(N)=O)c3)n2)cc1O
Found: 3.46 µM

###

System: SF-268 CNS
Assay: NCI tumour cell line growth inhibition, 48 h; in the data active means GI50 below about 0.43 µM; inactive means the rest
Please state which outcome applies, choosing from yes (1) = active, no (0) = inactive

Some entries whose results are on file:
>>> category_label("COc1cc(C=NCC(=O)CSC(c2ccccc2)c2ccccc2)cc(OC)c1OC")
"no (0)"
>>> category_label("Cc1ccc(Nc2ccnc(Nc3cccc(C(N)=O)c3)n2)cc1O")
"no (0)"
>>> category_label("Fc1ccc(-c2c(-c3ccncc3)n(CCN3CCOCC3)c3cccnc23)cc1")
"no (0)"
>>> category_label("C[C@@H]1CC[C@H]2C(CN3CCN(CC4=C(C(F)(F)F)O[C@@H]5O[C@@]6(C)CC[C@H]7[C@H](C)CC[C@@H]4[C@@]57OO6)CC3)=C(C(F)(F)F)O[C@@H]3O[C@@]4(C)CC[C@@H]1[C@]32OO4")
"no (0)"
>>> category_label("NC(=O)c1ccc(NC(=O)c2oc3ccccc3c2-c2cnn(-c3ccccc3)c2)cc1")
"no (0)"
>>> category_label("CCNC1=CC(=O)c2ncccc2C1=O")
"no (0)"

Lookup: Hi, sorry to bother you, what did the test record for Nc1ccccc1C#Cc1ccccc1C#CCCCCO ?
Found: no (0)

Lookup: Hi, sorry to bother you, what did the test record for CCN(CC)c1ccc(/C=N\NC(=O)c2cccc(Nc3ccnc(C(F)(F)F)c3)c2)c(O)c1 ?
Found: yes (1)

Lookup: Hi, sorry to bother you, what did the test record for C=C1C(=O)O[C@H]2[C@H](OC(C)=O)[C@@H](C)CCC/C(C)=C/CC[C@]3(CO3)[C@H](O)C[C@@H]12 ?
Found: no (0)

Lookup: Hi, sorry to bother you, what did the test record for ClCc1ccc(Cn2cnc3ncnc(Cl)c32)cc1 ?
Found: no (0)

Lookup: Hi, sorry to bother you, what did the test record for COc1cc(C(=O)c2c(-c3ccccc3)oc3ccccc23)cc(OC)c1O ?
Found: no (0)
